Hey, just so you know, these numbers are from paper PMC4072508.

Biological target: T1, Bcl-w, Q92843
T1 chain: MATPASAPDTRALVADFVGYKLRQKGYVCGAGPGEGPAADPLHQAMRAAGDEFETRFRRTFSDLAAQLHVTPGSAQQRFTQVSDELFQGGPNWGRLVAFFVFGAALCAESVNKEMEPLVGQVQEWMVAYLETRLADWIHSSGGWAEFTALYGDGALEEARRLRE
Experiment: fluorescence polarisation, direct titration of receptor into 10 nM labelled peptide
Exercise: for every item that follows, state its recorded pKd.
Give bare numbers, as −log10 of the molar value.

RYRHGAPAEQLRHLADMLTTKWATLQ [PLEKHH1] : 5.85
AELRLFLAQRLRWLCDSCPASRATCV [NBEAL2] : 7.54
SSLSDGLPVHLANIADELTQKKKMFK [AGBL2] : 5.23
PAKKMTLSEIYRWICDNFPYYKNAGI [FOXJ2] : 7.07

Alright, here's another binder for you.
// returns reported pKd for input FERVEQMCIQIKEVGDRVNYIKRSLQ [TRPM7]
5.60
